- Experimental target: Ubiquitin carboxyl-terminal hydrolase 17-like protein 5 (Homo sapiens) (UniProt A8MUK1)
- Sequence (A8MUK1 whole entry, looked up): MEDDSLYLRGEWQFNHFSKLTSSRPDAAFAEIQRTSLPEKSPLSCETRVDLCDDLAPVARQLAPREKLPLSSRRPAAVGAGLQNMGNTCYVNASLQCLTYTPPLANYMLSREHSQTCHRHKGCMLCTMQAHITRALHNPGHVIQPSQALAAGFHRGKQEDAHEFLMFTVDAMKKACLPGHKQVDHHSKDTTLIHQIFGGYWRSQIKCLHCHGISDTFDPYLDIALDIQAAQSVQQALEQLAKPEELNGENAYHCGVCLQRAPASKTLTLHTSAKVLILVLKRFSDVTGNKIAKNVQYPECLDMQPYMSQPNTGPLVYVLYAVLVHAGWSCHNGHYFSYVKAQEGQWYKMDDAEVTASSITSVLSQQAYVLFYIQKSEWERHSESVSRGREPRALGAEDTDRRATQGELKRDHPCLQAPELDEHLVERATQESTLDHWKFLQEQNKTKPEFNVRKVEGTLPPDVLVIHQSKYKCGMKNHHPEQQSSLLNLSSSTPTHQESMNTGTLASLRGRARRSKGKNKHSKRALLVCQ
- Measurement notes: ubiquitin-specific protease 17 DUB inhibitors, concentration-effect assay, cell-free, verification of initial screening actives (AID 1645864)
- Study conditions: purified USP17, ubiquitin-rhodamine cleavage fluorescence, 3 h
Calls of active or inactive are those of the source.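 Rule for the calls: active = maximal inhibition of USP17 at or above 30% in the confirmation dose-response, a value not among the printed readouts; inactive = the rest.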
# key: entry, value: IC50
Measured endpoint: IC50

>  <Molecule>
O=C(c1cc(Cl)ccc1Cl)N1CCN(c2ccc3nnc(-c4ccco4)n3n2)CC1

>  <Measured endpoint>
IC50

>  <Result>
> 50 µM (inactive)

$$$$
>  <Molecule>
C=C(NC(=O)C(=C)NC(=O)c1csc(C2=N[C@@H]3c4csc(n4)[C@H]4NC(=O)c5csc(n5)[C@H]([C@](C)(O)[C@@H](C)O)NC(=O)C5CSC(=N5)/C(=C/C)NC(=O)C([C@@H](C)O)NC(=O)c5csc(n5)[C@]3(CC2)NC(=O)[C@H](C)NC(=O)C(=C)NC(=O)[C@H](C)NC(=O)C([C@@H](C)CC)NC2C=Cc3c(C(C)O)cc(nc3[C@H]2O)C(=O)OC4C)n1)C(N)=O (some centres not stated)

>  <Measured endpoint>
IC50

>  <Result>
> 50 µM (inactive)

$$$$

* * *

- Experimental target: Ubiquitin carboxyl-terminal hydrolase 17-like protein 5 (Homo sapiens) (UniProt A8MUK1)
- Measurement notes: ubiquitin-specific protease 17 DUB inhibitors, concentration-effect assay, cell-free, verification of initial screening actives (AID 1645864)
- Study conditions: purified USP17, ubiquitin-rhodamine cleavage fluorescence, 3 h
Active and inactive are the calls of the source.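 The calls were made as follows: active = maximal inhibition of USP17 at or above 30% in the confirmation dose-response, a value not among the printed readouts; inactive = the rest.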
Possible outcomes: class 1 (active), class 0 (inactive)

>  <Compound>
O=C(NCc1cccnc1)c1cnn2c(C(F)(F)F)cc(-c3ccc(F)cc3)nc12

>  <Experimental target>
Ubiquitin carboxyl-terminal hydrolase 17-like protein 5 (Homo sapiens) (UniProt A8MUK1)

>  <Label>
class 1

$$$$
>  <Compound>
COc1ccccc1-c1nc2c3c(ncn2n1)Oc1c(c(C)nn1-c1ccccc1)C3c1cccnc1 (stereo not drawn)

>  <Experimental target>
Ubiquitin carboxyl-terminal hydrolase 17-like protein 5 (Homo sapiens) (UniProt A8MUK1)

>  <Label>
class 1

$$$$
>  <Compound>
O=C(OCc1ccc(Br)cc1)c1ccc2ccccc2n1

>  <Experimental target>
Ubiquitin carboxyl-terminal hydrolase 17-like protein 5 (Homo sapiens) (UniProt A8MUK1)

>  <Label>
class 0

$$$$
>  <Compound>
Nc1nc(-c2ccc[nH]2)cs1

>  <Experimental target>
Ubiquitin carboxyl-terminal hydrolase 17-like protein 5 (Homo sapiens) (UniProt A8MUK1)

>  <Label>
class 0

$$$$
>  <Compound>
Cc1cc(SCc2ncon2)c(C)cc1Cl

>  <Experimental target>
Ubiquitin carboxyl-terminal hydrolase 17-like protein 5 (Homo sapiens) (UniProt A8MUK1)

>  <Label>
class 0

$$$$
>  <Compound>
O=c1c2cnc3nc(-c4cccnc4)nn3c2ccn1CCc1ccccc1

>  <Experimental target>
Ubiquitin carboxyl-terminal hydrolase 17-like protein 5 (Homo sapiens) (UniProt A8MUK1)

>  <Label>
class 0

$$$$
>  <Compound>
COc1ccc(CCn2cnc3c4ccccc4n(C)c3c2=O)cc1OC

>  <Experimental target>
Ubiquitin carboxyl-terminal hydrolase 17-like protein 5 (Homo sapiens) (UniProt A8MUK1)

>  <Label>
class 0

$$$$
>  <Compound>
Fc1cccc(-n2cc(-c3noc(-c4ccccn4)n3)nn2)c1

>  <Experimental target>
Ubiquitin carboxyl-terminal hydrolase 17-like protein 5 (Homo sapiens) (UniProt A8MUK1)

>  <Label>
class 1

$$$$
>  <Compound>
O=C(Nc1ccc(F)cc1F)NC1CCN(c2ccccc2)C1=O (stereo not drawn)

>  <Experimental target>
Ubiquitin carboxyl-terminal hydrolase 17-like protein 5 (Homo sapiens) (UniProt A8MUK1)

>  <Label>
class 1

$$$$
>  <Compound>
COc1ccc(Cn2cnc3c([nH]c4ccc(Br)cc43)c2=O)cc1

>  <Experimental target>
Ubiquitin carboxyl-terminal hydrolase 17-like protein 5 (Homo sapiens) (UniProt A8MUK1)

>  <Label>
class 1

$$$$
>  <Compound>
O=C(Nc1nc2c(ccc3ccccc32)s1)c1cccc(Br)c1

>  <Experimental target>
Ubiquitin carboxyl-terminal hydrolase 17-like protein 5 (Homo sapiens) (UniProt A8MUK1)

>  <Label>
class 1

$$$$
>  <Compound>
Cc1ccc(C(=O)NCc2ccc(C(=O)Nc3ccc(C)c(C)c3)o2)cc1

>  <Experimental target>
Ubiquitin carboxyl-terminal hydrolase 17-like protein 5 (Homo sapiens) (UniProt A8MUK1)

>  <Label>
class 1

$$$$
>  <Compound>
Cc1ccc(Cn2cc(-c3noc(-c4ccncc4)n3)nn2)cc1

>  <Experimental target>
Ubiquitin carboxyl-terminal hydrolase 17-like protein 5 (Homo sapiens) (UniProt A8MUK1)

>  <Label>
class 1

$$$$
>  <Compound>
Cn1c(CN2CCCCCC2)nc2cc(NC(=O)c3ccccc3)ccc21

>  <Experimental target>
Ubiquitin carboxyl-terminal hydrolase 17-like protein 5 (Homo sapiens) (UniProt A8MUK1)

>  <Label>
class 0

$$$$
>  <Compound>
O=C(c1cnccn1)N1CCc2[nH]c3ccc(F)cc3c2C1

>  <Experimental target>
Ubiquitin carboxyl-terminal hydrolase 17-like protein 5 (Homo sapiens) (UniProt A8MUK1)

>  <Label>
class 0

$$$$
>  <Compound>
Cc1ccc(CNC(=O)c2cccc(N3C(=O)N4CCc5c([nH]c6ccccc56)[C@@]4(C)C3=O)c2)cc1

>  <Experimental target>
Ubiquitin carboxyl-terminal hydrolase 17-like protein 5 (Homo sapiens) (UniProt A8MUK1)

>  <Label>
class 1

$$$$
>  <Compound>
Cn1cc(-c2noc(Cc3cccc(C(F)(F)F)c3)n2)ccc1=O

>  <Experimental target>
Ubiquitin carboxyl-terminal hydrolase 17-like protein 5 (Homo sapiens) (UniProt A8MUK1)

>  <Label>
class 0

$$$$
>  <Compound>
COc1cnc(CSc2ncccn2)cc1OCC(=O)Nc1cc(C)ccc1C

>  <Experimental target>
Ubiquitin carboxyl-terminal hydrolase 17-like protein 5 (Homo sapiens) (UniProt A8MUK1)

>  <Label>
class 0

$$$$

Reference for the values: PubChem BioAssay AID1645864
